System: SQ-20B cells
Assay: IC50 determination by clonogenic cell kill (24 hour drug treatment, colonies scored after 2 to 3 weeks)
Type: cell-based, human
Measurement Conditions: 24 hour treatment
Each item that follows carries a reported IC50 (concentration that kills 50% of cells).
Express it in µg/mL; write the number only.

Before answering, review these 2 worked examples.
Reported IC50 (concentration that kills 50% of cells), compound CN(C)c1ccc(C(=O)NCCCCCC(=O)NO)cc1 [MD85] : ____ 0.1

Reported IC50 (concentration that kills 50% of cells), compound CN(C)c1ccc(C(=O)NCCCCCCC(=O)NO)cc1 [M344] : ____ 0.32

Others:
Reported IC50 (concentration that kills 50% of cells), compound C/C=C1\NC(=O)[C@H]2CSSCC/C=C/[C@H](CC(=O)N[C@H](C(C)C)C(=O)N2)OC(=O)[C@H](C(C)C)NC1=O [FR, depsipsptide (FR 901228)] : ____ 0.005

====

Test system: SQ-20B cells
Assay: Clonogenic survival after ionizing radiation, fit to the single hit multitarget and linear quadratic models
Type: cell-based, human
Parameters: unit not given here
Measurement Conditions: SQ-20B cells treated with drug at IC50, then gamma radiation
Recorded Metric: Do (multitarget model radiosensitivity)

Notebook entry, SQ-20B cells assay: Do (multitarget model radiosensitivity) of C/C=C1\NC(=O)[C@H]2CSSCC/C=C/[C@H](CC(=O)N[C@H](C(C)C)C(=O)N2)OC(=O)[C@H](C(C)C)NC1=O [FR, depsipsptide (FR 901228)] = ? 1.65

Notebook entry, SQ-20B cells assay: Do (multitarget model radiosensitivity) of O=C(CCCCCCC(=O)Nc1ccccc1)NO [SAHA, suberonylanilide hydroxamic acid] = ? 1.88

Notebook entry, SQ-20B cells assay: Do (multitarget model radiosensitivity) of `CN(C)c1ccc(C(=O)NCCCCCC(=O)NO)cc1` = ? 2.49

Others:
Notebook entry, SQ-20B cells assay: Do (multitarget model radiosensitivity) of `CC(/C=C/C(=O)NO)=C\[C@@H](C)C(=O)c1ccc(N(C)C)cc1` = ? 1.64

Notebook entry, SQ-20B cells assay: Do (multitarget model radiosensitivity) of `CN(C)c1ccc(C(=O)NCCCCCCC(=O)NO)cc1` = ? 1.65

====

Tested on: SQ-20B cells
Assay: Clonogenic survival after ionizing radiation, fit to the single hit multitarget and linear quadratic models
Format: cell-based, human
Design: unit not given here
Measurement Conditions: SQ-20B cells treated with drug at IC50, then gamma radiation
Each item that follows carries a reported β (linear quadratic model).
Lab note: jot down the number only; don't add units.

Notebook entry, SQ-20B cells assay: β (linear quadratic model) of C/C=C1\NC(=O)[C@H]2CSSCC/C=C/[C@H](CC(=O)N[C@H](C(C)C)C(=O)N2)OC(=O)[C@H](C(C)C)NC1=O [FR, depsipsptide (FR 901228)] = ? 0.033

Notebook entry, SQ-20B cells assay: β (linear quadratic model) of O=C(CCCCCCC(=O)Nc1ccccc1)NO [SAHA, suberonylanilide hydroxamic acid] = ? 0.031

Others:
Notebook entry, SQ-20B cells assay: β (linear quadratic model) of CC(/C=C/C(=O)NO)=C\[C@@H](C)C(=O)c1ccc(N(C)C)cc1 [TSA, trichostatin A] = ? 0.030

Notebook entry, SQ-20B cells assay: β (linear quadratic model) of CN(C)c1ccc(C(=O)NCCCCCCC(=O)NO)cc1 [M344] = ? 0.033

Notebook entry, SQ-20B cells assay: β (linear quadratic model) of CN(C)c1ccc(C(=O)NCCCCCC(=O)NO)cc1 [MD85] = ? 0.022
